Would you mind telling me the reported logP of each entry?
ASSAY OVERVIEW: Partition coefficient (logP)
Format: physicochemical
CONDITION SUMMARY: octanol/water; read-out: logP
Numbered stars: 1 amine (or outer) side, 2 acyl side, 3 side chain; on linkers, the order of the positions; unused ones are H or OH. Bridge positions count the residues as written; N and C are the ends. Square brackets hold non-standard residues; d marks the D form. Peptide text beside a SMILES is read from it. I, II: the chains in the order shown. Actinocin(9to1) = Cc1c2oc3c(C)ccc(C(=O)[*:1])c3nc-2c(C(=O)[*:2])c(N)c1=O; NMeV = CN[C@H](C(=O)O)C(C)C; Sar = CNCC(=O)O
Could you keep your reply to the number by itself?

stdin: Would you mind telling me what logP value was observed for "COc1cccc2c1C(=O)c1c(O)c3c(c(O)c1C2=O)C[C@@](O)(C(=O)CO)C[C@@H]3O[C@H]1C[C@H](N)[C@H](O)[C@H](C)O1" ?
stdout: 0.1

stdin: Would you mind telling me what logP value was observed for NC(=O)NO [HYDROXYUREA] ?
stdout: -1.8

stdin: Would you mind telling me what logP value was observed for "COc1cccc2c1C(=O)c1c(O)c3c(c(O)c1C2=O)C[C@@](O)(C(C)=O)C[C@@H]3O[C@H]1C[C@H](N)[C@H](O)[C@H](C)O1" ?
stdout: 0.66

stdin: Would you mind telling me what logP value was observed for Cc1c2oc3c(C)ccc(C(=O)N[C@@H]4C(=O)N[C@H](C(C)C)C(=O)N5CCC[C@H]5C(=O)N(C)CC(=O)N(C)[C@@H](C(C)C)C(=O)O[C@@H]4C)c3nc-2c(C(=O)N[C@@H]2C(=O)N[C@H](C(C)C)C(=O)N3CCC[C@H]3C(=O)N(C)CC(=O)N(C)[C@@H](C(C)C)C(=O)O[C@@H]2C)c(N)c1=O [DACTINOMYCIN] (I: T[dV]P[Sar][NMeV] / II: T[dV]P[Sar][NMeV]; ester I:1-I:C, II:1-II:C; linker I:N-II:N via Actinocin(9to1)) ?
stdout: 3.21

stdin: Would you mind telling me what logP value was observed for "COc1ccc(C[C@H](N)C(=O)N[C@H]2[C@@H](O)[C@H](n3cnc4c(N(C)C)ncnc43)O[C@@H]2CO)cc1" ?
stdout: 0.03
